Experimental target: glucagon receptor (GCGR) (Homo sapiens, UniProt P47871)
Construct: expressed in transfected cells; host or cells: CHO-K1 cells overexpressing GCGR (membrane fractions)
Sequence (P47871 26-477): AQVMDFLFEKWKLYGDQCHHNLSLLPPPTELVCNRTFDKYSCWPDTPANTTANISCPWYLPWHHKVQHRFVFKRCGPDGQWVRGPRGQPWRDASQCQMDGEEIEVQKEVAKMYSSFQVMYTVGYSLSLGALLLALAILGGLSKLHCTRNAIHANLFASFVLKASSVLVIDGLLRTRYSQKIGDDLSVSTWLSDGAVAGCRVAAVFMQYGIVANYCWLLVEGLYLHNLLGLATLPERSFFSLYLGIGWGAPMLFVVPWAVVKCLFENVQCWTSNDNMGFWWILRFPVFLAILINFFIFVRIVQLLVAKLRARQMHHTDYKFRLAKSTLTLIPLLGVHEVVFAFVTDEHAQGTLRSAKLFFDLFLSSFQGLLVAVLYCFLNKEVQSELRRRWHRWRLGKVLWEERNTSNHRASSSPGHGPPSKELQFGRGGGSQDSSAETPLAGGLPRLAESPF
Experiment summary: I125-glucagon binding assay (competition, GCGR membrane fractions)
Test parameters: competition with I125-glucagon 0.0625 nM, membrane fractions of GCGR overexpressed CHO-K1 cells
Readout: IC50 (nM)

// worked examples, IC50 included
>>> result_number("CC(C)C[C@@H](COc1cc(F)c(-c2ccc(C(F)(F)F)cc2F)c(F)c1)Nc1ccc(C(=O)NCCC(=O)O)cc1")
307
>>> result_number("CC(C)[C@@H](COc1ccc(-c2cn3ccccc3n2)cc1)Nc1ccc(C(=O)NCCC(=O)O)cc1")
3810
>>> result_number("CCOC(=O)CCNC(=O)c1ccc(N[C@H](COc2ccc(-c3cc4ccccc4o3)cc2)C(C)C)cc1")
803
>>> result_number("CCCC[C@@H](COc1ccc(-c2ccc(C(F)(F)F)cc2Cl)cc1)Nc1ccc(C(=O)NCCC(=O)O)cc1")
11
>>> result_number("CC(C)[C@@H](COc1ccc(-c2cc3ccccc3o2)cc1)N(C)c1ccc(C(=O)NCCC(=O)O)cc1")
391

(A) CCOC(=O)CCNC(=O)c1ccc(N[C@@H](COc2ccc(-c3nc4ccccc4o3)cc2)C(C)C)cc1
(B) CC(C)C[C@@H](COc1ccc(-c2ccc(C(F)(F)F)cc2)nn1)Nc1ccc(C(=O)NCCC(=O)O)cc1
(C) CC(C)[C@@H](COc1ccc(-c2ccc(Cl)cc2Cl)nc1)Nc1ccc(C(=O)NCCC(=O)O)cc1
(D) CC(C)C[C@@H](COc1ccc(-c2ccc(F)cc2F)nn1)Nc1ccc(C(=O)NCCC(=O)O)cc1
[in] Order the items by recorded IC50; the first position goes to the largest value. Lab note: final answer is the ordered label list.
[out] A, D, B, C
